target: SERCA2a (Cavia porcellus); experiment: SERCA2a ATPase activity in heart-derived SR microsomes from normal guinea-pig; assay type: biochemical; conditions: compound 200 nM
Sequence (A0A286XD73 1-997): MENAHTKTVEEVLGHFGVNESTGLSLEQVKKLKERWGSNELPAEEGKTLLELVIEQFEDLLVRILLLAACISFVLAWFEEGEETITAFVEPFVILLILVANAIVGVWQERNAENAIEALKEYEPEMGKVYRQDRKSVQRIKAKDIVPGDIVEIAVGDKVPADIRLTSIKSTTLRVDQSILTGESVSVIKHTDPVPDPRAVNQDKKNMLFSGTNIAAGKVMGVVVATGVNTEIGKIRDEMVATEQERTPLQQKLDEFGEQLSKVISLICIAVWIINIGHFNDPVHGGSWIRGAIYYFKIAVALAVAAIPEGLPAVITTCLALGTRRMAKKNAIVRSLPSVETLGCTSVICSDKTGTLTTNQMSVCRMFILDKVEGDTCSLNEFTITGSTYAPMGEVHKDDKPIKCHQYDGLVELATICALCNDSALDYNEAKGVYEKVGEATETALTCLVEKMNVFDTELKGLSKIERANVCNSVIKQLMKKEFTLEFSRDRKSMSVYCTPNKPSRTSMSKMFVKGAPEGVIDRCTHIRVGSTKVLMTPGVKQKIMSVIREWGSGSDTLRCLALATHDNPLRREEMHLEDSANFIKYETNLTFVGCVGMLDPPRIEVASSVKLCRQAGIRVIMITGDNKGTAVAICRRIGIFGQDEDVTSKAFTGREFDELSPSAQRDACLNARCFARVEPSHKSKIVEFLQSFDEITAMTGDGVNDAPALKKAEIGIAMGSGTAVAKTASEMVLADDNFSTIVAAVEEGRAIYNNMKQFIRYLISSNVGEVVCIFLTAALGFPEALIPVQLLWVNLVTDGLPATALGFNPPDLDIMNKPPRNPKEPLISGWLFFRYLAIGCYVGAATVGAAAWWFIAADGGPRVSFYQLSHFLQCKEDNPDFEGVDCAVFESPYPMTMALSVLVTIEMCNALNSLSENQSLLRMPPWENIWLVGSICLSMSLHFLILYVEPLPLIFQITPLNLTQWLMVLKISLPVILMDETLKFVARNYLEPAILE
assay.endpoint: % change in Ca2+ Kd vs control (negative = decrease) (%)
Give just the number in %; leave the unit off.

Q: Return % change in Ca2+ Kd vs control (negative = decrease) for the following compound: C[C@]12CC[C@H](CCC3CCNCC3)CC1[C@@H](CO)C(=O)[C@@H]1[C@@H]2CC[C@]2(C)C(=O)CC[C@@H]12 (stereo partly drawn) [CVie411]
Ans: −4.9

Q: Return % change in Ca2+ Kd vs control (negative = decrease) for the following compound: C[C@]12CC/C(=C/CCC(=O)O)CC1[C@@H](O)C[C@@H]1[C@@H]2CC[C@]2(C)C(=O)CC[C@@H]12 (stereo partly drawn) [CVie202]
Ans: −6

Q: Return % change in Ca2+ Kd vs control (negative = decrease) for the following compound: C[C@]12CC/C(=C/CCC(=O)O)CC1[C@H](O)C[C@@H]1[C@@H]2CC[C@]2(C)C(=O)CC[C@@H]12 (stereo partly drawn) [CVie204]
Ans: −3

Q: Return % change in Ca2+ Kd vs control (negative = decrease) for the following compound: C[C@]12CC[C@H](CCC3CNC3)CC1[C@@H](CO)C(=O)C1C2CC[C@]2(C)C(=O)CCC12 (stereo partly drawn) [CVie407]
Ans: 0
